Attribution: patent US5756423A

Entries and their pest or weed control at 1000 g/ha
Tested on: barnyard grass (Enchinochloa crusgalli) (ECHCG)
Assay: post-emergent herbicidal test, barnyard grass
Type: in vivo
Conditions: Echinochloa crus-galli, post-emergence, post-emergent, 1.0 kg/ha (*), 17-21 days after application; read-out: ECHCG percent control
PROPERTY: pest or weed control at 1000 g/ha

{"columns": ["COMPOUND", "PROPERTY", "RESULT"],
 "data": [
  ["CCCCN(CCCC)CC(P(=O)(O)O)P(=O)(O)O", "pest or weed control at 1000 g/ha", "98%"],
  ["CCCN(CCC)CC(P(=O)(O)O)P(=O)(O)O", "pest or weed control at 1000 g/ha", "100%"],
  ["CC(NCC(P(=O)(O)O)P(=O)(O)O)c1ccccc1 (centres unmarked)", "pest or weed control at 1000 g/ha", "80%"],
  ["CC(O)CNCC(P(=O)(O)O)P(=O)(O)O (centres unmarked)", "pest or weed control at 1000 g/ha", "95%"],
  ["O=P(O)(O)C(CN1CCCCCC1)P(=O)(O)O", "pest or weed control at 1000 g/ha", "60%"]
]}

----------
System: barnyard grass (Enchinochloa crusgalli) (ECHCG)
Assay: post-emergent herbicidal test, barnyard grass
Type: in vivo
Conditions: Echinochloa crus-galli, post-emergence, read-out: ECHCG percent control
Entries and their pest or weed control at 1000 g/ha
PROPERTY: pest or weed control at 1000 g/ha (%)

{"columns": ["SUBSTANCE_SMILES", "PROPERTY", "RECORDED_NUMBER"],
 "data": [
  ["CCNCC(P(=O)(O)O)P(=O)(O)O", "pest or weed control at 1000 g/ha", 60],
  ["O=P(O)(O)C(CNC1CC1)P(=O)(O)O", "pest or weed control at 1000 g/ha", 95],
  ["CONCC(P(=O)(O)O)P(=O)(O)O", "pest or weed control at 1000 g/ha", 0],
  ["C=CCNCC(P(=O)(O)O)P(=O)(O)O", "pest or weed control at 1000 g/ha", 98],
  ["CNCC(P(=O)(O)O)P(=O)(O)O", "pest or weed control at 1000 g/ha", 100],
  ["CCCNCC(P(=O)(O)O)P(=O)(O)O", "pest or weed control at 1000 g/ha", 100]
]}

----------
Tested on: wild mustard (Brassica kaber), also known as Sinapis arvensis (SINAR)
Test: post-emergent herbicidal test, wild mustard
Assay type: in vivo
Conditions: Brassica, post-emergence, post-emergent, 1.0 kg/ha (*), 17-21 days after application; read-out: SINAR percent control
PROPERTY: pest or weed control at 1000 g/ha (%)

{"columns": ["COMPOUND", "TARGET_ENTITY", "UNIT_SYMBOL", "RECORDED_NUMBER"],
 "data": [
  ["CC[C@H](C)NCC(P(=O)(O)O)P(=O)(O)O", "wild mustard (Brassica kaber), also known as Sinapis arvensis (SINAR)", "%", 100],
  ["CCC(C)NCC(P(=O)(O)O)P(=O)(O)O (centres unmarked)", "wild mustard (Brassica kaber), also known as Sinapis arvensis (SINAR)", "%", 100],
  ["CCCN(CC(C)C)CC(P(=O)(O)O)P(=O)(O)O", "wild mustard (Brassica kaber), also known as Sinapis arvensis (SINAR)", "%", 100],
  ["CCOCCNCC(P(=O)(O)O)P(=O)(O)O", "wild mustard (Brassica kaber), also known as Sinapis arvensis (SINAR)", "%", 40],
  ["O=P(O)(O)C(CN[C@@H]1C[C@H]1c1ccccc1)P(=O)(O)O (relative stereo)", "wild mustard (Brassica kaber), also known as Sinapis arvensis (SINAR)", "%", 10]
]}

----------
System: wild mustard (Brassica kaber), also known as Sinapis arvensis (SINAR)
Assay: post-emergent herbicidal test, wild mustard
Assay type: in vivo
Details: Brassica, post-emergence, post-emergent, 1.0 kg/ha (*), 17-21 days after application; read-out: SINAR percent control
Entries and their pest or weed control at 1000 g/ha
PROPERTY: pest or weed control at 1000 g/ha

{"columns": ["COMPOUND", "RESULT"],
 "data": [
  ["CCN(CC)CC(P(=O)(O)O)P(=O)(O)O", "95%"],
  ["CC1CCCN(CC(P(=O)(O)O)P(=O)(O)O)C1C (stereo not shown)", "100%"],
  ["CC1CCCN1CC(P(=O)(O)O)P(=O)(O)O (stereo not shown)", "100%"],
  ["CC1(C)CCCN(CC(P(=O)(O)O)P(=O)(O)O)C1", "5%"],
  ["CC1CCN(CC(P(=O)(O)O)P(=O)(O)O)CC1", "100%"],
  ["O=P(O)(O)C(CN1CC=CCC1)P(=O)(O)O", "100%"],
  ["C=CCN(CC=C)CC(P(=O)(O)O)P(=O)(O)O", "98%"],
  ["CCCCN(CCC)CC(P(=O)(O)O)P(=O)(O)O", "100%"],
  ["C=CCCNCC(P(=O)(O)O)P(=O)(O)O", "100%"],
  ["CC(O)CNCC(P(=O)(O)O)P(=O)(O)O (stereo not shown)", "100%"]
]}

----------
Tested on: farnesyl pyrophosphate synthase in daffodil chromoplasts
Assay: inhibition of farnesyl pyrophosphate synthase in daffodil chromoplasts (14C-isopentenyl pyrophosphate incorporation)
Assay type: biochemical, Narcissus pseudonarcissus
Conditions: Table I; unit inferred, IC50 values in nM; read-out: IC50

{"columns": ["MOLECULE", "UNIT_SYMBOL", "COMPARISON_SIGN", "IC50"],
 "data": [
  ["CCCN(CC)CC(P(=O)(O)O)P(=O)(O)O", "nM", "=", 124],
  ["CONCC(P(=O)(O)O)P(=O)(O)O", "nM", "=", 6310],
  ["CN(C)CC(P(=O)(O)O)P(=O)(O)O", "nM", "=", 2900],
  ["CC(NCC(P(=O)(O)O)P(=O)(O)O)c1ccccc1 (stereo not shown) [Compound 26]", "nM", "=", 1430],
  ["C=CCNCC(P(=O)(O)O)P(=O)(O)O", "nM", "=", 26],
  ["O=P(O)(O)C(CNC1CCc2ccccc21)P(=O)(O)O (stereo not shown)", "nM", "=", 1730],
  ["CC(C)(C)NCC(P(=O)(O)O)P(=O)(O)O", "nM", "=", 238],
  ["CC(C)NCC(P(=O)(O)O)P(=O)(O)O", "nM", "=", 89],
  ["O=P(O)(O)C(CN1CC=CCC1)P(=O)(O)O", "nM", "=", 26],
  ["O=P(O)(O)C(CNC1CC1)P(=O)(O)O", "nM", "=", 27],
  ["O=P(O)(O)C(CNCC(F)(F)F)P(=O)(O)O", "nM", "=", 380],
  ["CCCN(CCC(C)C)CC(P(=O)(O)O)P(=O)(O)O", "nM", "=", 1000],
  ["CC[C@H](C)NCC(P(=O)(O)O)P(=O)(O)O", "nM", "=", 32],
  ["Cc1cccnc1NCC(P(=O)(O)O)P(=O)(O)O", "nM", "=", 6600],
  ["C=CCCNCC(P(=O)(O)O)P(=O)(O)O", "nM", "=", 316],
  ["CCCCCCN(CCC)CC(P(=O)(O)O)P(=O)(O)O", "nM", "=", 135],
  ["C=CCN(CC)CC(P(=O)(O)O)P(=O)(O)O", "nM", "=", 88],
  ["CCC1CCCCN1CC(P(=O)(O)O)P(=O)(O)O (stereo not shown)", "nM", "=", 112],
  ["CCC(C)NCC(P(=O)(O)O)P(=O)(O)O (stereo not shown)", "nM", "=", 32],
  ["CCOCCNCC(P(=O)(O)O)P(=O)(O)O", "nM", "=", 1160],
  ["CCCCCCNCC(P(=O)(O)O)P(=O)(O)O", "nM", "=", 316],
  ["O=P(O)(O)C(CN[C@@H]1C[C@H]1c1ccccc1)P(=O)(O)O (relative stereo)", "nM", "=", 2090],
  ["Cc1cnn(CC(P(=O)(O)O)P(=O)(O)O)c1", "nM", "=", 1410],
  ["CCCN(CCC)CC(P(=O)(O)O)P(=O)(O)O", "nM", "=", 32],
  ["CC(C)N(C)CC(P(=O)(O)O)P(=O)(O)O", "nM", "=", 178],
  ["C=CCN(C)CC(P(=O)(O)O)P(=O)(O)O", "nM", "=", 60],
  ["CC1CCC(C)N1CC(P(=O)(O)O)P(=O)(O)O (stereo not shown)", "nM", "=", 650],
  ["O=P(O)(O)C(CNNc1c(Cl)cc(C(F)(F)F)cc1Cl)P(=O)(O)O", "nM", ">", 500000],
  ["O=P(O)(O)C(CNC1CCCCC1)P(=O)(O)O", "nM", "=", 425],
  ["CCCN(CC(C)C)CC(P(=O)(O)O)P(=O)(O)O", "nM", "=", 91],
  ["CC1CCCC1NCC(P(=O)(O)O)P(=O)(O)O (stereo not shown)", "nM", "=", 232]
]}
